# target or system: ERα_LBD (GST) (Homo sapiens, UniProt P03372)
# Sequence (P03372 311-547 limits assumed): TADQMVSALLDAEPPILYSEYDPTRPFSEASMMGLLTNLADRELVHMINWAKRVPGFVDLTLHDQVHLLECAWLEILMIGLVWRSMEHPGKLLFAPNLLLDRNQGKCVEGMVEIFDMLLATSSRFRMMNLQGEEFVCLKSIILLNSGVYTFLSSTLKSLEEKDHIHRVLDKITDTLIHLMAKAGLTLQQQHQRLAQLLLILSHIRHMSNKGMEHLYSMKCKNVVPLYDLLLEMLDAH
pIC50: −log10 of the molar value.
readout name: pIC50

molecule: C[C@@H]1Cc2c(ccc3[nH]ncc23)C(c2ccc(N3CCC4(CC3)CC(CN3CCN5c6ccc7c(c6OC[C@H]5C3)CN([C@H]3CCC(=O)NC3=O)C7=O)C4)nc2)N1CC(F)(F)F (stereo in doubt) [Compound A26]
target or system: ERα_LBD (GST) (Homo sapiens, UniProt P03372)
result: > 8.00

For this molecule ( COc1cc(N2CCC(CN3CCN4c5ccc6c(c5OCC4C3)CN(C3CCC(=O)NC3=O)C6=O)CC2)ccc1C1c2ccc3[nH]ncc3c2CC(C)N1CC(F)F (stereo in doubt) ), measured pIC50 is ≤ 8.00

For this molecule ( `C[C@@H]1Cc2c(ccc3[nH]ncc23)[C@@H](c2ccc(N3CC4(CCC(CN5CCN6c7ccc8c(c7OC[C@H]6C5)CN([C@H]5CCC(=O)NC5=O)C8=O)CC4)C3)cn2)N1CC1(F)CC1` ), measured pIC50 is ≤ 8.00
